Tested on: K562 CRISPRi cells
ASSAY_EXPLANATION: Perturb-seq pooled growth measurement (sgRNA counts, growth phenotype γ, relative activity)
Assay type: cell-based, human
TEST_PARAMETERS: sequencing read counts; 10 days of growth (day twelve after transduction)
PROPERTY_LABEL: Perturb-seq pooled growth sgRNA counts, d10
Numbers only.

SUBSTANCE: TUBB_+_30688126.23-P1_06: sgRNA targeting TUBB, GCGGCAGGACGGTTCTGAGA, SEQ ID NO: 107 (listed as DNA, chemistry not fully specified)
MEASURED_NUMBER: 1158
--
SUBSTANCE: DBR1_+_137893744.23-P1P2_00: sgRNA targeting DBR1, GTTTGCAGGAGTCTACACCC, SEQ ID NO: 78 (listed as DNA, chemistry not fully specified)
MEASURED_NUMBER: 3583
--
SUBSTANCE: ATP5E_−_57607036.23-P1P2_16: sgRNA targeting ATP5E, GGTGTCCAGGGGCGCTCTGT, SEQ ID NO: 153 (listed as DNA, chemistry not fully specified)
MEASURED_NUMBER: 9964

Parameter requested: Perturb-seq pooled growth sgRNA counts, d10. Apply to each item below.
1. EIF2S1_−_67827080.23-P1P2_06: sgRNA targeting EIF2S1, GAGCGAAGCGCGCGCTGAGG, SEQ ID NO: 137 (listed as DNA, chemistry not fully specified)
2. RPL9_+_39460483.23-P1P2_00: sgRNA targeting RPL9, GGATGTTTCTGTGCTCGTGG, SEQ ID NO: 5 (listed as DNA, chemistry not fully specified)

1. 2436
2. 1014

====

Test system: K562 CRISPRi cells
ASSAY_EXPLANATION: Perturb-seq pooled growth measurement (sgRNA counts, growth phenotype γ, relative activity)
Assay type: cell-based, human
TEST_PARAMETERS: sequencing read counts; 5 days of growth (day seven after transduction)
Please enter Y where Perturb-seq pooled growth sgRNA counts, d5 is greater than or equal to 2000, and N where it is lower.

# example entries with known answers
SUBSTANCE: SEC61A1_−_127771295.23-P1_01: sgRNA targeting SEC61A1, GGCACTGTCGTGTCTCTCGG, SEQ ID NO: 85 (listed as DNA, chemistry not fully specified)
QUALITATIVE_LABEL: Y

SUBSTANCE: RAN_+_131356438.23-P1P2_00: sgRNA targeting RAN, GGCGGTCGCTGCGCTTAGGG, SEQ ID NO: 69 (listed as DNA, chemistry not fully specified)
QUALITATIVE_LABEL: Y

SUBSTANCE: ATP5E_−_57607036.23-P1P2_14: sgRNA targeting ATP5E, GGTGTCCAGGGGCACTGTGT, SEQ ID NO: 155 (listed as DNA, chemistry not fully specified)
QUALITATIVE_LABEL: Y

SUBSTANCE: GNB2L1_+_180670873.23-P1P2_13: sgRNA targeting GNB2L1, GTGCAAGGCGGCGGCGGGAG, SEQ ID NO: 57 (listed as DNA, chemistry not fully specified)
QUALITATIVE_LABEL: Y

SUBSTANCE: POLR2H_+_184081251.23-P1P2_11: sgRNA targeting POLR2H, GGGGCCACGAGAGCAGCGGA, SEQ ID NO: 115 (listed as DNA, chemistry not fully specified)
QUALITATIVE_LABEL: N

// inclusive: Perturb-seq pooled growth sgRNA counts, d5 at least 2000? input: RPS18_+_33239917.23-P1P2_01: sgRNA targeting RPS18, GCTGCAATGCCGCTGGATCA, SEQ ID NO: 41 (listed as DNA, chemistry not fully specified)
Y

// inclusive: Perturb-seq pooled growth sgRNA counts, d5 at least 2000? input: DBR1_+_137893744.23-P1P2_05: sgRNA targeting DBR1, GTTTGCAGGAGTGTACACCC, SEQ ID NO: 81 (listed as DNA, chemistry not fully specified)
Y

// inclusive: Perturb-seq pooled growth sgRNA counts, d5 at least 2000? input: non-targeting_00028: non-targeting negative control sgRNA, GGTGGCCTTTGCAATTGGCG, SEQ ID NO: 162 (listed as DNA, chemistry not fully specified) [reference compound]
Y
